test: Cell viability analysis (WST-1), normal pulmonary epithelial cell line BEAS-2B; format: cell-based; settings: human, BEAS-2B cells (normal pulmonary epithelial cell line), test 0512-10 min, read-out: survival rate (viability) of cells
Structures can show the parent of a compound that is named as a salt.
measured.property: viability at 72 h, 10 µM (%)
Express it in %; write the number only.

Measured viability at 72 h, 10 µM of C[C@@H](NCCCc1cccc(C(F)(F)F)c1)c1cccc2ccccc12 [Cinacalcet HCl, Cinacalcet hydrochloride] : 72.9

###

test: Cell viability analysis (WST-1), normal pulmonary epithelial cell line BEAS-2B; type: cell-based; conditions: human, BEAS-2B cells (normal pulmonary epithelial cell line), test 0517-10 min, read-out: survival rate (viability) of cells
Counter-ions that a name gives are not always drawn.
measured.property: viability at 72 h, 10 µM (%)
Report the value in % with no unit label.

Lab book: viability at 72 h, 10 µM of C[C@@H](NCCCc1cccc(C(F)(F)F)c1)c1cccc2ccccc12 [Cinacalcet HCl, Cinacalcet hydrochloride] noted as 89
